assay-info: in vivo
applied-conditions: BALB/c, mouse, po, 10 mg/kg
measurement-label: bioavailability at 24 h (%)
Unit % implied. Number only.

Returns the measured bioavailability at 24 h for the input molecule. Input: `CC(C)(O)c1cc(Nc2cc(Oc3cn(C4CC4)nc3C3CCOCC3)ccn2)ccn1` 45.6

* * *

assay-info: in vivo
applied-conditions: BALB/c, mouse, iv, 1 mg/kg
measurement-label: clearance at 24 h (mL/min/kg)
The figure you give is taken to be in mL/min/kg; do not add the unit.

Using the record for `CC(C)(O)c1cc(Nc2cc(Oc3cn(C4CC4)nc3C3CCOCC3)ccn2)ccn1` , report its clearance at 24 h. 86.7

* * *

assay-info: in vivo
applied-conditions: BALB/c, mouse, po, 10 mg/kg
measurement-label: Cmax at 24 h (ng/mL)
Write it as a number; the unit ng/mL goes unstated.

Form field: reported Cmax at 24 h of `CC(C)(O)c1cc(Nc2cc(Oc3cn(C4CC4)nc3C3CCOCC3)ccn2)ccn1` 747

* * *

assay-info: in vivo
applied-conditions: BALB/c, mouse, iv, 1 mg/kg
measurement-label: half-life at 24 h (min)
Please respond with the number in min and leave the unit unwritten.

Consider the compound `CC(C)(O)c1cc(Nc2cc(Oc3cn(C4CC4)nc3C3CCOCC3)ccn2)ccn1` and give its measured half-life at 24 h. 24

Numbers sourced from ChEMBL document CHEMBL4765311.
